Cited source for all entries: the supplement of paper PMC10567573

B1: PPP2R2B (parent)
chain: RNTKRDVTLEASRENSKPRAILKP

# Variants of: B1
# test.summary: protein stability index of a GFP-peptide fusion (GPS, HEK-293T) (PSI 1-6); higher = more stable;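 also: lentivirally expressed fusions sorted by FACS into six bins by GFP to DsRed ratio, PSI derived from sequencing read proportions per bin multiplied by bin number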
# experimental.setup: c terminus: a fixed tail appended
Param threshold (4) applies to protein stability index; output t when value >= threshold, f when value < threshold.

(Q) Could you please find out whether RNTKRDVTLNASRENSKPRAILKP [E10N] has protein stability index that meets 4 or exceeds it?
(A) t

(Q) Another variant: RYTKRDVTLEASRENSKPRAILKP [N2Y]
(A) t

(Q) Another variant: RNTKRDVTLEASRENSKPRAIVKP [L22V]
(A) t

(Q) Another variant: RNTKRDVTLEASRENSWPRAILKP [K17W]
(A) t

(Q) Another variant: RNTKRDVTLEAHRENSKPRAILKP [S12H]
(A) t

(Q) Another variant: HNTKRDVTLEASRENSKPRAILKP [R1H]
(A) t

(Q) Another variant: RNTKRDVTLEAFRENSKPRAILKP [S12F]
(A) f

(Q) Another variant: RNTKRDVTLEASRANSKPRAILKP [E14A]
(A) t

(Q) Another variant: RNTKRDPTLEASRENSKPRAILKP [V7P]
(A) t

(Q) Another variant: RNTKRDVTLEASRENSKPRALLKP [I21L]
(A) t

(Q) Another variant: RNTNRDVTLEASRENSKPRAILKP [K4N]
(A) t

(Q) Another variant: RNTQRDVTLEASRENSKPRAILKP [K4Q]
(A) t

(Q) Another variant: RNTKRDVTLEASRENSKPRAFLKP [I21F]
(A) t

(Q) Another variant: RNTKRDVTLEASRENSKPRAWLKP [I21W]
(A) t

(Q) Another variant: RNTKRFVTLEASRENSKPRAILKP [D6F]
(A) f

(Q) Another variant: RNTKRDVTLCASRENSKPRAILKP [E10C]
(A) f

(Q) Another variant: RNQKRDVTLEASRENSKPRAILKP [T3Q]
(A) t

(Q) Another variant: RNTKRDVTLEASQENSKPRAILKP [R13Q]
(A) t

(Q) Another variant: RNTKMDVTLEASRENSKPRAILKP [R5M]
(A) f

(Q) Another variant: RNTKRDVTLEASRWNSKPRAILKP [E14W]
(A) f

(Q) Another variant: RNTKRDVTLHASRENSKPRAILKP [E10H]
(A) t

(Q) Another variant: RNTKRDVTLEASREPSKPRAILKP [N15P]
(A) t

(Q) Another variant: RNTKRDITLEASRENSKPRAILKP [V7I]
(A) t

(Q) Another variant: RNTKRDVTLEASRSNSKPRAILKP [E14S]
(A) t

(Q) Another variant: WNTKRDVTLEASRENSKPRAILKP [R1W]
(A) t

(Q) Another variant: RNTKRDVTLEASRENCKPRAILKP [S16C]
(A) t

(Q) Another variant: RNTKRDVTLEASRENSKPRAIEKP [L22E]
(A) t

(Q) Another variant: RNTKRDVTLEASRENSKPRAYLKP [I21Y]
(A) t

(Q) Another variant: RNTKRDVTLWASRENSKPRAILKP [E10W]
(A) f

(Q) Another variant: RNTARDVTLEASRENSKPRAILKP [K4A]
(A) t

(Q) Another variant: RNTKRDVTLEAGRENSKPRAILKP [S12G]
(A) t

(Q) Another variant: RNTKRDVTLEASRENSKPRGILKP [A20G]
(A) t

(Q) Another variant: RNTKRDVTLEASRENSKYRAILKP [P18Y]
(A) f

(Q) Another variant: RNTKRDVTLEASREGSKPRAILKP [N15G]
(A) t

(Q) Another variant: RKTKRDVTLEASRENSKPRAILKP [N2K]
(A) t

(Q) Another variant: RNTKRDVTLEASRENSKPRANLKP [I21N]
(A) t

(Q) Another variant: RNTFRDVTLEASRENSKPRAILKP [K4F]
(A) t

(Q) Another variant: RNTKRDVTLEASRENVKPRAILKP [S16V]
(A) t

(Q) Another variant: RNTKRDVTLEASRENSTPRAILKP [K17T]
(A) t

(Q) Another variant: RNTKRDVTLEASRFNSKPRAILKP [E14F]
(A) f

(Q) Another variant: FNTKRDVTLEASRENSKPRAILKP [R1F]
(A) t

(Q) Another variant: RNTKRDVTLEASCENSKPRAILKP [R13C]
(A) t
